tested on: 855422-203-R-J1-PDC complex spheroid growth; test: Anticancer human tumor 855422-203-R-J1-PDC patient-derived bladder carcinoma cell line growth inhibition [AhR]; settings: second compound 10 µM; first compound 0.0316 µM; stronger effect = lower value
MEASURED ENDPOINT: viability, T/C (%)
Write the value in % as a bare number.

Fill in: 855422-203-R-J1-PDC complex spheroid growth viability, T/C for CC1COCCN1c1cc(-c2ccnn2C)c2ccnc(-c3ccn[nH]3)c2n1 (stereo unspecified) + CC(CO)NC(=O)c1cc(-c2ccc(Cl)cc2)nn(-c2cnn(C)c2)c1=O = 78.5

Field viability, T/C (855422-203-R-J1-PDC complex spheroid growth), entry O=C(C=Cc1cccc(S(=O)(=O)Nc2ccccc2)c1)NO + CC(CO)NC(=O)c1cc(-c2ccc(Cl)cc2)nn(-c2cnn(C)c2)c1=O : 87.2

###

test system: 855422-203-R-J1-PDC complex spheroid growth; assay: Anticancer human tumor 855422-203-R-J1-PDC cell line growth inhibition [AhR]; details: second compound 10 µM; first compound 0.00316 µM; active means viability on the fitted dose curve at most 10% of control; inactive means the rest;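 also: spheroids exposed to agents for seven days before readout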
Answer with one of the outcomes active, inactive

State the result this test recorded for CC1COCCN1c1cc(-c2ccnn2C)c2ccnc(-c3ccn[nH]3)c2n1 (configuration not stated) + CC(CO)NC(=O)c1cc(-c2ccc(Cl)cc2)nn(-c2cnn(C)c2)c1=O .
inactive

What is the recorded call for this compound in the test? Nc1ncn(C2CC(O)C(CO)O2)c(=O)n1 (configuration not stated) + Cc1cncc(-c2nc(NCCc3c[nH]c4ccccc34)c3ncn(C(C)C)c3n2)c1
inactive

Please indicate how the test categorized CC[C@@]1(O)C(=O)OCc2c1cc1n(c2=O)Cc2cc3c(CN(C)C)c(O)ccc3nc2-1 + Cc1cncc(-c2nc(NCCc3c[nH]c4ccccc34)c3ncn(C(C)C)c3n2)c1 .
active

Recorded test call requested for CC[C@@]1(O)C(=O)OCc2c1cc1n(c2=O)Cc2cc3c(CN(C)C)c(O)ccc3nc2-1 + CC(CO)NC(=O)c1cc(-c2ccc(Cl)cc2)nn(-c2cnn(C)c2)c1=O
inactive

Write down the call the test reported for this compound. Item: Nc1ncn(C2CC(O)C(CO)O2)c(=O)n1 (configuration not stated) + CC(CO)NC(=O)c1cc(-c2ccc(Cl)cc2)nn(-c2cnn(C)c2)c1=O
inactive

Tell me the assay call for CC[C@@]1(O)C(=O)OCc2c1cc1n(c2=O)Cc2cc3c(CN(C)C)c(O)ccc3nc2-1 + Cc1ccccc1N=Nc1ccc(NC(=O)c2ccnn2C)c(C)c1 please.
inactive

Give the logged outcome of this assay for the following compound: CC1COCCN1c1cc(-c2ccnn2C)c2ccnc(-c3ccn[nH]3)c2n1 (configuration not stated) + Cc1cncc(-c2nc(NCCc3c[nH]c4ccccc34)c3ncn(C(C)C)c3n2)c1
active

Returns: the outcome recorded for CC1COCCN1c1cc(-c2ccnn2C)c2ccnc(-c3ccn[nH]3)c2n1 (configuration not stated) + Cc1ccccc1N=Nc1ccc(NC(=O)c2ccnn2C)c(C)c1 in this assay.
inactive

New cases:
Hey, what did the test say about Cn1ncnc1C1c2n[nH]c(=O)c3cc(F)cc(c23)NC1c1ccc(F)cc1 (configuration not stated) + Cc1ccccc1N=Nc1ccc(NC(=O)c2ccnn2C)c(C)c1 ?
inactive

Answer briefly: the call reported for Cn1ncnc1C1c2n[nH]c(=O)c3cc(F)cc(c23)NC1c1ccc(F)cc1 (configuration not stated) + Cc1cncc(-c2nc(NCCc3c[nH]c4ccccc34)c3ncn(C(C)C)c3n2)c1 in this assay.
inactive

Answer briefly: the call reported for Nc1ncn(C2CC(O)C(CO)O2)c(=O)n1 (configuration not stated) + Cc1ccccc1N=Nc1ccc(NC(=O)c2ccnn2C)c(C)c1 in this assay.
inactive

Any idea what this test logged for Cn1ncnc1C1c2n[nH]c(=O)c3cc(F)cc(c23)NC1c1ccc(F)cc1 (configuration not stated) + CC(CO)NC(=O)c1cc(-c2ccc(Cl)cc2)nn(-c2cnn(C)c2)c1=O ?
inactive

###

tested on: 855422-203-R-J1-PDC complex spheroid growth; assay: Anticancer human tumor 855422-203-R-J1-PDC cell line growth inhibition [AhR]; conditions: curve of first compound; second compound 10 µM;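 also: spheroids exposed to agents for seven days before readout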
MEASURED ENDPOINT: IC50 (nM)
// return numeric value only (unit: nM, not printed)

Some molecules with recorded IC50:
The value of IC50 measured for the molecule NS(=O)(=O)OCC1CC(n2ccc3c(NC4CCc5ccccc54)ncnc32)CC1O (stereo unspecified) + Cc1ccccc1N=Nc1ccc(NC(=O)c2ccnn2C)c(C)c1 turned out to be 484

Lab book: IC50 of COc1cc(C2c3cc4c(cc3C(OC3OC5COC(C)OC5C(O)C3O)C3COC(=O)C23)OCO4)cc(OC)c1O (stereo unspecified) + Cc1ccccc1N=Nc1ccc(NC(=O)c2ccnn2C)c(C)c1 noted as 368

Looking up CCc1c2c(nc3ccc(O)cc13)-c1cc3c(c(=O)n1C2)COC(=O)[C@]3(O)CC + CC(CO)NC(=O)c1cc(-c2ccc(Cl)cc2)nn(-c2cnn(C)c2)c1=O , I found its IC50 recorded as 1.48

More entries:
So, Nc1ccccc1NC(=O)c1ccc(CNC(=O)OCc2cccnc2)cc1 + Cc1ccccc1N=Nc1ccc(NC(=O)c2ccnn2C)c(C)c1 ? Its IC50 was 4290

###

Tested on: 855422-203-R-J1-PDC complex spheroid growth
Assay: Anticancer human tumor 855422-203-R-J1-PDC cell line growth inhibition [AhR];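 also: spheroids exposed to agents for seven days before readout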;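 as to viability, T/C: percent of DMSO vehicle control luminescence viability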
Settings: second compound 0.316 µM; first compound 0.0949 µM; stronger effect = lower value
Text: Multicellular complex tumor spheroid response to aryl hydrocarbon receptor antagonists in combination with a variety of drugs and investigational agents in selected tumor cell lines […] Compounds. […] If the clinical Cmax for an agent had not been determined, the highest concentration tested was 10 microM (Table 1). […]
A collection of compounds and their measured viability, T/C
Write it as a number; the unit % goes unstated.

Reported viability, T/C for CCN(c1cc(-c2ccc(CN3CCOCC3)cc2)cc(C(=O)NCc2c(C)cc(C)[nH]c2=O)c1C)C1CCOCC1 + Cc1cncc(-c2nc(NCCc3c[nH]c4ccccc34)c3ncn(C(C)C)c3n2)c1 was 86.6

Just so you know, measured viability, T/C for Nc1ncn(C2CC(O)C(CO)S2)c(=O)n1 (stereo not given) + CC(CO)NC(=O)c1cc(-c2ccc(Cl)cc2)nn(-c2cnn(C)c2)c1=O came out at 87.6

Query CCN(c1cc(-c2ccc(CN3CCOCC3)cc2)cc(C(=O)NCc2c(C)cc(C)[nH]c2=O)c1C)C1CCOCC1 + CC(CO)NC(=O)c1cc(-c2ccc(Cl)cc2)nn(-c2cnn(C)c2)c1=O yields viability, T/C of 100

Sure, the documented viability, T/C for O=C(C=Cn1cnc(-c2cc(C(F)(F)F)cc(C(F)(F)F)c2)n1)NNc1cnccn1 + Cc1cncc(-c2nc(NCCc3c[nH]c4ccccc34)c3ncn(C(C)C)c3n2)c1 is 128

Value of measured viability, T/C for the entry O=C(C=Cn1cnc(-c2cc(C(F)(F)F)cc(C(F)(F)F)c2)n1)NNc1cnccn1 + Cc1ccccc1N=Nc1ccc(NC(=O)c2ccnn2C)c(C)c1 : 151

Measured viability, T/C of Nc1ncn(C2CC(O)C(CO)S2)c(=O)n1 (stereo not given) + Cc1ccccc1N=Nc1ccc(NC(=O)c2ccnn2C)c(C)c1 : 95.4

Noted for CC(C)CC(NC(=O)C(Cc1ccccc1)NC(=O)c1cnccn1)B(O)O (stereo not given) + Cc1cncc(-c2nc(NCCc3c[nH]c4ccccc34)c3ncn(C(C)C)c3n2)c1 : its viability, T/C reads 0.01

Short answer for CC(C)CC(NC(=O)C(Cc1ccccc1)NC(=O)c1cnccn1)B(O)O (stereo not given) + Cc1ccccc1N=Nc1ccc(NC(=O)c2ccnn2C)c(C)c1 : viability, T/C was 0.02

New cases:
Entry CC(C)CC(NC(=O)C(Cc1ccccc1)NC(=O)c1cnccn1)B(O)O (stereo not given) + CC(CO)NC(=O)c1cc(-c2ccc(Cl)cc2)nn(-c2cnn(C)c2)c1=O — recorded viability, T/C = 0.02

According to the records, this compound CCc1c2c(nc3ccc(O)cc13)-c1cc3c(c(=O)n1C2)COC(=O)[C@]3(O)CC + Cc1ccccc1N=Nc1ccc(NC(=O)c2ccnn2C)c(C)c1 displays viability, T/C of 14.6

The reported value for O=C(C=Cn1cnc(-c2cc(C(F)(F)F)cc(C(F)(F)F)c2)n1)NNc1cnccn1 + CC(CO)NC(=O)c1cc(-c2ccc(Cl)cc2)nn(-c2cnn(C)c2)c1=O in terms of viability, T/C is 149

The compound CCc1c2c(nc3ccc(O)cc13)-c1cc3c(c(=O)n1C2)COC(=O)[C@]3(O)CC + Cc1cncc(-c2nc(NCCc3c[nH]c4ccccc34)c3ncn(C(C)C)c3n2)c1 showed viability, T/C equal to 6.31

Lab note: Nc1ncn(C2CC(O)C(CO)S2)c(=O)n1 (stereo not given) + Cc1cncc(-c2nc(NCCc3c[nH]c4ccccc34)c3ncn(C(C)C)c3n2)c1 gave viability, T/C of 78.2

Value of viability, T/C reported for the compound CCc1c2c(nc3ccc(O)cc13)-c1cc3c(c(=O)n1C2)COC(=O)[C@]3(O)CC + CC(CO)NC(=O)c1cc(-c2ccc(Cl)cc2)nn(-c2cnn(C)c2)c1=O is 6.86

Lab book: viability, T/C of CCN(c1cc(-c2ccc(CN3CCOCC3)cc2)cc(C(=O)NCc2c(C)cc(C)[nH]c2=O)c1C)C1CCOCC1 + Cc1ccccc1N=Nc1ccc(NC(=O)c2ccnn2C)c(C)c1 noted as 92.6

Source listed as PubChem BioAssay AID1919005.
